Catalogue of IC50 readings, one per entry.
# MEASURED_ON: 5-HT4 receptor (Cavia porcellus, UniProt O70528)
# Construct: striatum was isolated which was cryopreserved at −80° C. until use; from tissue; host or cells: guinea pig (Slc-Hartley) striatum membranes
# Sequence (O70528 whole entry): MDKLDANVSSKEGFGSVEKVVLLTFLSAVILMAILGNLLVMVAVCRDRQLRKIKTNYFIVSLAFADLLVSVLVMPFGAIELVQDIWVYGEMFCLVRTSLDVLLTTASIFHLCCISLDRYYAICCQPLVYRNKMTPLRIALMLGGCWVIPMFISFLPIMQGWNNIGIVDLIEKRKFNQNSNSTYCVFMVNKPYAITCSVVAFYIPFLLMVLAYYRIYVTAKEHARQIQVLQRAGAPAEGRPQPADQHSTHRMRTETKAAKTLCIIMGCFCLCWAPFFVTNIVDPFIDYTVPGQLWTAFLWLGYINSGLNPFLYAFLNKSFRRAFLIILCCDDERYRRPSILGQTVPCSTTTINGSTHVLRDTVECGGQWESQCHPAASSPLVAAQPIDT
# PROTOCOL_SUMMARY: Test Example 3: Guinea pig 5-HT4 receptor binding assay, [3H]-GR113808, striatum membranes (Table 98)
# Method: The guinea pig 5-HT4 receptor binding assay and preparations of receptor membrane preparations herein were carried out according to a method of Grossman et al. [see, British J. Pharmacol., (1993) 109, 618]. Slc-Hartley guinea pigs (body weight 300 g to 400 g) were decapitated to remove brain rapidly, and striatum was isolated which was cryopreserved at −80° C. until use. […]
Provide only the numeric value, understood in nM.

GIVEN_SMILES: CC(C)c1nn(-c2noc(C3(O)CCN(C4CCN(C(=O)CO)CC4)CC3)n2)c2c(F)cccc12
VALUE_UNITS: nM
IC50: 81.9

The molecule CC(=O)N1CCC(N2CCC(O)(c3nc(-n4nc(C(C)C)c5cccc(F)c54)no3)CC2)CC1 showed IC50 equal to 85.3

###

Catalogue of Alternation behavior (%) readings, one per entry.
# Test system: scopolamine-induced cognitive impairment
# PROTOCOL_SUMMARY: Example 5: Y-maze test, scopolamine-induced cognitive impairment, single-agent administration (Table 101)
# Format: in vivo, ddY mouse
# MEASUREMENT_CONTEXT: compound 10 mg/kg, p.o., scopolamine-treated, # = P<0.05 vs scopolamine group
Provide only the numeric value, understood in %.

Use these answered entries as a reference point.
GIVEN_SMILES: CCc1nn(-c2noc(C3CCN(CC4CN(C(=O)OC)C4)CC3)n2)c2c(F)cccc12
MEASURED_ON: scopolamine-induced cognitive impairment
VALUE_UNITS: %
Alternation behavior (%): 61.3

GIVEN_SMILES: CC(=O)N1CCC(N2CCC(c3nc(-n4nc(C(C)C)c5cccc(F)c54)no3)CC2)CC1.Cl
MEASURED_ON: scopolamine-induced cognitive impairment
VALUE_UNITS: %
Alternation behavior (%): 53.6

Field Alternation behavior (%) (scopolamine-induced cognitive impairment), entry CC(C)c1nn(-c2noc(C3CCN(C4CCN(C(=O)CO)CC4)CC3)n2)c2c(F)cccc12 : 57.5

###

Catalogue of pEC50 readings, one per entry.
# MEASURED_ON: human 5-HT4b receptor (Homo sapiens)
# Construct: expressed in transfected cells; host or cells: CHO cells (G418 selection)
# PROTOCOL_SUMMARY: Test Example 4: Serotonin 4 (5-HT4) receptor agonist activity assay, cAMP HTRF in CHO cells (Table 100)
# Type: cell-based
# MEASUREMENT_CONTEXT: concentration showing 50% of IA; mean value
Counter-ions that a name gives are not always drawn.
Note on units: pEC50 is unitless, being -log10 of a concentration expressed in mol/L.

Use these answered entries as a reference point.
COMPOUND: CC(=O)N1CCC(CN2CCC(c3nc(-n4nc(C(C)C)c5ccccc54)no3)CC2)CC1 [Example 475, trifluoroacetate]
MEASURED_VALUE: 7.87
//
COMPOUND: CCc1nn(-c2noc(C3CCN(CC4CN(C(=O)CO)C4)CC3)n2)c2c(F)cccc12 [compound 250]
MEASURED_VALUE: 8.46
//
COMPOUND: COCCN(CC1CCCO1)C1CC(c2nc(-n3nc(C(C)C)c4cccc(F)c43)no2)C1 (stereo not shown) [Example 612]
MEASURED_VALUE: 7.84
//
COMPOUND: CC(C)c1nn(-c2noc(C3CCN(C4C5CCC4CN(C(=O)CO)C5)CC3)n2)c2c(F)cccc12 (stereo not shown) [Example 534]
MEASURED_VALUE: 8.24
//
COMPOUND: CC(C)c1nn(-c2noc([C@H]3C[C@@H](NCC4CCN(S(C)(=O)=O)CC4)C3)n2)c2c(F)cccc12 [Example 594]
MEASURED_VALUE: 8.64

The compound O=C(CO)N1CCC(N2CCC(c3nc(-n4nc(C5CCC5)c5cccc(F)c54)no3)CC2)CC1 [Example 527] showed pEC50 equal to 8.24

The compound CCc1nn(-c2noc(C3CCN(C[C@H]4CCN(C(C)=O)C4)CC3)n2)c2c(F)cccc12 [Example 209, hydrochloride] showed pEC50 equal to 8.43

###

Catalogue of Emax readings, one per entry.
# MEASURED_ON: human 5-HT4b receptor (Homo sapiens)
# Construct: expressed in transfected cells; host or cells: CHO cells (G418 selection)
# PROTOCOL_SUMMARY: Test Example 4: Serotonin 4 (5-HT4) receptor agonist activity assay, cAMP HTRF in CHO cells (Table 100)
# Format: cell-based
# MEASUREMENT_CONTEXT: CHO, 0.25 h; intrinsic activity, maximal activity of 5-HT defined as 100%; mean value; read-out: IA (%)
Structures can show the parent of a compound that is named as a salt.
Provide only the numeric value, understood in %.

Use these answered entries as a reference point.
COMPOUND: CCc1nn(-c2noc(C3CCN(CC4CCN(C(C)=O)CC4)CC3)n2)c2c(F)c(F)ccc12 [Example 478, trifluoroacetate]
MEASURED_VALUE: 68.7

COMPOUND: CCc1nn(-c2noc(C3CCN(C4CCOCC4)CC3)n2)c2c(F)c(F)ccc12 [Example 448, trifluoroacetate]
MEASURED_VALUE: 57.5

COMPOUND: CC(C)c1nn(-c2noc(C[C@H]3CCN(CC4CN(C(=O)CO)C4)C3)n2)c2c(F)cccc12
MEASURED_VALUE: 90

Next:
The compound CC(C)c1nn(-c2noc(C3CCN(C(C)(C)CO)CC3)n2)c2c(F)cccc12 showed Emax equal to 106

###

# MEASURED_ON: 5-HT4 receptor (Cavia porcellus, UniProt O70528)
# Construct: striatum was isolated which was cryopreserved at −80° C. until use; from tissue; host or cells: guinea pig (Slc-Hartley) striatum membranes
# PROTOCOL_SUMMARY: Test Example 3: Guinea pig 5-HT4 receptor binding assay, [3H]-GR113808, striatum membranes (Table 98)
# MEASUREMENT_CONTEXT: Guinea pig 5-HT4 receptor binding assay, [3H]-GR113808, striatum membranes; mean value of each group; read-out: IC50
pIC50: −log10 of the molar value. Counter-ions that a name gives are not always drawn.
Catalogue of pIC50 readings, one per entry.

COMPOUND: CC(C)c1nn(-c2noc(C3CCN(C4CCN(C(=O)CO)CC4)CC3)n2)c2c(F)c(F)ccc12
MEASURED_ON: 5-HT4 receptor (Cavia porcellus, UniProt O70528)
pIC50: > 7.70

COMPOUND: CCc1nn(-c2noc(C3CCN(C[C@@H]4CCN(S(C)(=O)=O)C4)CC3)n2)c2c(F)cccc12
MEASURED_ON: 5-HT4 receptor (Cavia porcellus, UniProt O70528)
pIC50: > 7.70

COMPOUND: CC(=O)N1CCC(N2CC[C@H](Cc3nc(-n4nc(C(C)C)c5cccc(F)c54)no3)C2)CC1
MEASURED_ON: 5-HT4 receptor (Cavia porcellus, UniProt O70528)
pIC50: > 7.70

COMPOUND: CCc1nn(-c2noc(C3CCN(C4CCN(C(=O)CO)CC4)CC3)n2)c2c(F)cccc12 [compound 244, hydrochloride]
MEASURED_ON: 5-HT4 receptor (Cavia porcellus, UniProt O70528)
pIC50: > 7.70

The compound CCc1nn(-c2noc(C3CCN(C4CCN(C(=O)OC)CC4)CC3)n2)c2c(F)c(F)ccc12 [Example 459, trifluoroacetate] showed pIC50 equal to > 7.70

The compound CCc1nn(-c2noc(C3CCN(CC4CN(C(=O)COC)C4)CC3)n2)c2c(F)cccc12 [Example 224, hydrochloride] showed pIC50 equal to > 7.70

The compound CCc1nn(-c2noc(C3CCN(CC4CN(C(=O)CO)C4)CC3)n2)c2c(F)cccc12 showed pIC50 equal to > 7.70

###

# MEASURED_ON: human 5-HT4b receptor (Homo sapiens, UniProt Q13639)
# Construct: expressed in transfected cells; host or cells: CHO cells (G418 selection)
# Sequence (Q13639 whole entry): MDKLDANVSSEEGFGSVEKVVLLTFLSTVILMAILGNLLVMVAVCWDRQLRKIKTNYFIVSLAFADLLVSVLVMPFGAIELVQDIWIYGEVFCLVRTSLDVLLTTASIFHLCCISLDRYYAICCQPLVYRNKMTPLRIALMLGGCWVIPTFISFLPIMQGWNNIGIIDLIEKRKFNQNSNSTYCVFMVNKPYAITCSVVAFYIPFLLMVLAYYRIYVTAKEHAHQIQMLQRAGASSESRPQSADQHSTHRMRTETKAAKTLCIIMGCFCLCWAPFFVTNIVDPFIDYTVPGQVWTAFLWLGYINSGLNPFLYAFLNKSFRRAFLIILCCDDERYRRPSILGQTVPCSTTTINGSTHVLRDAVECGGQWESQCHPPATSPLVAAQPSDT
# PROTOCOL_SUMMARY: Test Example 2: Serotonin 4 (5-HT4) receptor agonist activity assay, cAMP HTRF in CHO cells (Table 97)
# Type: cell-based
# MEASUREMENT_CONTEXT: concentration showing 50% of IA; cAMP in CHO cells expressing human 5-HT4b receptor; mean value
Structures can show the parent of a compound that is named as a salt.
EXPERIMENTAL_ENDPOINT: EC50 (nM)
Provide only the numeric value, understood in nM.

The compound CCc1nn(-c2noc(C3CCN(C[C@@H]4CCCN4C(=O)OCCF)CC3)n2)c2c(F)cccc12 showed EC50 equal to 4

The compound CCc1nn(-c2noc(C3CCN(CC(C)C)CC3)n2)c2ccccc12 showed EC50 equal to 11

The compound CCc1nn(-c2noc(C3CCN(CCCOC)CC3)n2)c2ccccc12 [Example 87, trifluoroacetate] showed EC50 equal to 9.4

The compound CC(C)CN1CCC(c2nc(-n3nc(C(C)C)c4ccccc43)no2)CC1 [Example 98, trifluoroacetate] showed EC50 equal to 15.5

The compound CCc1nn(-c2noc(C3CCN(CCC4CCOCC4)CC3)n2)c2cc(F)ccc12 showed EC50 equal to 8.6

The compound COCCCN1CCC(c2nc(-n3nc(C(C)C)c4ccccc43)no2)CC1 showed EC50 equal to 8.3

These data points were gathered from patent US20140057895A1.
